- Experimental system: human 5-HT7(a) receptor (Homo sapiens, UniProt P34969)
- Sequence (P34969 1-445 isoform P34969-2): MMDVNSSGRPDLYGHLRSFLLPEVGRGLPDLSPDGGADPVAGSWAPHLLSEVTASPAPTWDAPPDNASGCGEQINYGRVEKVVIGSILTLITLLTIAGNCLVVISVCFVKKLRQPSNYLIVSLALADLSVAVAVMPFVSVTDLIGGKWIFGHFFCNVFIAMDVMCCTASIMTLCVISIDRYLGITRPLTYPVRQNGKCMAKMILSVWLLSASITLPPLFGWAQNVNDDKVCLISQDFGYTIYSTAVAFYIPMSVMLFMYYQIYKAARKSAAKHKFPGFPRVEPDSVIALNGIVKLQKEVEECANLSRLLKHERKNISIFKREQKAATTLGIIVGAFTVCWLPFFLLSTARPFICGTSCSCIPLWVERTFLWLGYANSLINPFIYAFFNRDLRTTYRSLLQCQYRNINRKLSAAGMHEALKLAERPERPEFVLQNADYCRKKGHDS
- Method summary: 5-CT-stimulated cAMP assay, preincubation/washout experiments, HEK-hu5-HT7 cells
- Assay type: cell-based
- Reported conditions: read-out: IC50, irrev, 5-CT-stimulated cAMP production
Quantity kind: pIC50
Remember the convention: pIC50 equals -log10 of concentration in molar.

IN: Any idea what its pIC50 is? The compound is `O=C(CCCCCN1CCN(c2ccccc2-c2ccccc2)CC1)NCc1ccccc1`
OUT: 7.38

----------
- Experimental system: human 5-HT7(a) receptor (Homo sapiens, UniProt P34969)
- Method summary: Whole-cell [^3H]-SB-269970 radioligand binding (preincubation/washout experiments)
- Reported conditions: 30 min preincubation, washout, then 2 nmol/L radioligand
Quantity kind: IC50 (nM)
Numbers only here, please. The scale is nM.

IN: What does the data say about its IC50? Entry: O=C(CCCCCN1CCN(c2ccccc2-c2ccccc2)CC1)NCc1ccccc1 [MEL-9]
OUT: 22.4

----------
- Experimental system: UniProt P34969
- Method summary: [^3H]-LSD binding in membrane homogenates of HEK-hu5-HT7 cells
- Reported conditions: n = 3, data not shown, read-out: Ki, displacement of [^3H]-LSD binding
Quantity kind: pKi
Value format note: pKi is -log10 of concentration (mol/L); just state the number.

IN: # pKi lookup, item `O=C(CCCCCN1CCN(c2ccccc2-c2ccccc2)CC1)NCc1ccccc1`
OUT: 7.42
